test system: OVCAR-8 ovarian; assay: NCI tumour cell line growth inhibition, 48 h
// Condition not met strictly below 30 µM in TGI; Condition met otherwise

Would you please look over these solved cases?
{"compound": "COc1cc(/C=C2\\C[C@H]3[C@@H]4CC=C5C[C@@H](OC(C)=O)CC[C@]5(C)[C@H]4CC[C@]3(C)[C@H]2OC(C)=O)ccc1OCCN1CCCCC1", "label-class": "Condition met"}
{"compound": "N#CC1(C#N)C(c2ccccc2)C=CC(c2ccc([N+](=O)[O-])cc2)C1(C#N)C#N (stereo not given)", "label-class": "Condition not met"}
{"compound": "O=c1ccnc(SCc2ccc(Cl)cc2)[nH]1", "label-class": "Condition met"}
{"compound": "O=c1c2cc(S(=O)(=O)Nc3c(Cl)cccc3Cl)ccc2ncn1NS(=O)(=O)c1ccc2ccccc2c1", "label-class": "Condition met"}
{"compound": "Cc1ccc(C2SCC(=O)N2NC(=O)c2ccncc2)s1 (stereo not given)", "label-class": "Condition met"}
{"compound": "CC1=CC(=O)c2ccc(C)cc2C1=O", "label-class": "Condition not met"}

I'd appreciate it if you could say whether Nc1nc(-c2ccccc2)cc(-c2ccc(Cl)cc2)c1-c1nc2ccccc2o1 has TGI at least equal to 30 µM.
Condition met

Decide: is the reported value of TGI for CN(C)Cc1cc(/C=C/C(=O)c2ccc(Cl)c(Cl)c2)cc(CN(C)C)c1O equal to or greater than 30 µM?
Condition met

# bool: TGI of Cc1ccccc1NC(=O)c1ccc([N+](=O)[O-])cc1 >= 30 µM
Condition met

Is the recorded value of TGI equal to or greater than 30 µM for this compound? Cc1ccc(NC(=O)CC2C(=O)Nc3ccccc3S2=O)c(C)c1 (stereo not given)
Condition met

These data points were gathered from PubChem BioAssay (NCI).
